Reported pEC50 values are given for each entry in this list.
- Test system: HCV 1a-H77 subgenomic replicon
- ASSAY DETAILS: microbe, parasite or virus in culture
- Type: cell-based, HCV genotype 1a
- PARTICULARS: Hepatitis C virus, stable replicon, 5% FBS, absence of human plasma; read-out: Stable Replicon 1a H77 5% FBS EC50
Reminder that pEC50 is minus the log10 of a molar concentration.

The examples below pair each entry with its known result.
COMPOUND	pEC50
CC(C)CCN(c1cc2oc(-c3ccc(F)cc3)c(C3=NOCCN3)c2cc1C1CC1)S(C)(=O)=O [Example 10]	7.98
CS(=O)(=O)N(CCCS(N)(=O)=O)c1cc2oc(-c3ccc(F)cc3)c(-c3ncc[nH]3)c2cc1C1CC1 [Example 80]	7.92

Please examine the following record next.
Q: Look at this compound and give its reported pEC50. CS(=O)(=O)N(CCCO)c1cc2oc(-c3ccc(F)cc3)c(C3=NOCCN3)c2cc1C1CC1 [Example 137]
Ans: 7.82

* * *

- System: HCV 1b-BB7 subgenomic replicon
- ASSAY DETAILS: microbe, parasite or virus in culture
- Format: cell-based, HCV genotype 1b
- PARTICULARS: Hepatitis C virus, stable replicon, strain 1b BB7, 5% FBS + 40% human plasma; read-out: 1b BB7 5% FBS + 40% Human Plasma EC50
Reported pEC50 values are given for each entry in this list.
Reminder that pEC50 is minus the log10 of a molar concentration.

The examples below pair each entry with its known result.
MOLECULE	ENDPOINT	MEASURED
CS(=O)(=O)N(CCCS(=O)(=O)N1CCOCC1)c1cc2oc(-c3ccc(F)cc3)c(-c3ncc[nH]3)c2cc1C1CC1 [Example 79]	pEC50	7.21
CS(=O)(=O)NCCCN(c1cc2oc(-c3ccc(F)cc3)c(-c3ncc[nH]3)c2cc1C1CC1)S(C)(=O)=O [Example 95]	pEC50	7.12
CS(=O)(=O)N(CCCN1CCOCC1)c1cc2oc(-c3ccc(F)cc3)c(-c3ncc[nH]3)c2cc1C1CC1 [Example 60]	pEC50	7.00
CS(=O)(=O)N(CCN1CCCC1)c1cc2oc(-c3ccc(F)cc3)c(-c3ncc[nH]3)c2cc1C1CC1 [Example 81]	pEC50	6.89
CS(=O)(=O)N(CCCF)c1cc2oc(-c3ccc(F)cc3)c(-c3ncc[nH]3)c2cc1C1CC1 [Example 85]	pEC50	7.02

Q: Look at this molecule and give its reported pEC50. CN(C)C(=O)CCCN(c1cc2oc(-c3ccc(F)cc3)c(-c3ncc[nH]3)c2cc1C1CC1)S(C)(=O)=O [Example 102]
Ans: 7.18

Q: Look at this molecule and give its reported pEC50. CCN(CC)CCCN(c1cc2oc(-c3ccc(F)cc3)c(C3=NOCCN3)c2cc1C1CC1)S(C)(=O)=O [Example 131]
Ans: 6.99

Q: Look at this molecule and give its reported pEC50. CS(=O)(=O)N(CCCO)c1cc2oc(-c3ccc(F)cc3)c(C3=NOCCN3)c2cc1C1CC1 [Example 137]
Ans: 6.95

Q: Look at this molecule and give its reported pEC50. CS(=O)(=O)CCN(c1cc2oc(-c3ccc(F)cc3)c(C3=NOCCN3)c2cc1C1CC1)S(C)(=O)=O [Example 9]
Ans: 6.86

Q: Look at this molecule and give its reported pEC50. CN(C)CCCN(c1cc2oc(-c3ccc(F)cc3)c(C3=NOCCN3)c2cc1C1CC1)S(C)(=O)=O [Example 127]
Ans: 7.05

Q: Look at this molecule and give its reported pEC50. CS(=O)(=O)CCCN(c1cc2oc(-c3ccc(F)cc3)c(C3=NOCCN3)c2cc1C1CC1)S(C)(=O)=O [Example 140]
Ans: 6.82

* * *

- SUBJECT OF TEST: HCV NS5B polymerase 1a-H77 (Hepatitis C virus genotype 1a)
- Construct: six-histidine tag; made in house; host or cells: E. coli
- Sequence (P27958 2421-2990): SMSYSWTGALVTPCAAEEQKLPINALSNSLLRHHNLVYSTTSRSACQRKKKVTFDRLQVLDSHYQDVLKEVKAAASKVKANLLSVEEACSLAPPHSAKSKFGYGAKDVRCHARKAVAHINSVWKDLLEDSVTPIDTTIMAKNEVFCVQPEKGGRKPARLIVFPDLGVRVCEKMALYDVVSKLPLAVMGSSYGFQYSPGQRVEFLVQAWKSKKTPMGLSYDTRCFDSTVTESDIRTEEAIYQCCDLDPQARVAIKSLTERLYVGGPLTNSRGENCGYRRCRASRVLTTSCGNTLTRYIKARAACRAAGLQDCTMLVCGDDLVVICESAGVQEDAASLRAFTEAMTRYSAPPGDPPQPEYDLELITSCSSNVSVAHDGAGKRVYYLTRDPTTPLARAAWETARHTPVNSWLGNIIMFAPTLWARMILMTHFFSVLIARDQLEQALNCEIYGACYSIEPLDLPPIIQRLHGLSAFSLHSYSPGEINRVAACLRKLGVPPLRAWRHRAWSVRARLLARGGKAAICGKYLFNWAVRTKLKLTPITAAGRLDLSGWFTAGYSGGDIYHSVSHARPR
- ASSAY DETAILS: biochemical
- Design: species or system HCV genotype 1a
- PARTICULARS: enzyme, strain 1a H77; read-out: HCV Polymerase Strain 1a H77 IC50
ENDPOINT: pIC50
Reminder that pIC50 is minus the log10 of a molar concentration.

Q: Look at this compound and give its reported pIC50. COc1ccc(CN(c2cc3oc(-c4ccc(F)cc4)c(-c4ncc(C)[nH]4)c3cc2C2CC2)S(C)(=O)=O)cc1
Ans: 7.81

Q: Look at this compound and give its reported pIC50. CCOC(=O)CN(c1cc2oc(-c3ccc(F)cc3)c(-c3ncc[nH]3)c2cc1C1CC1)S(C)(=O)=O
Ans: 7.98

Q: Look at this compound and give its reported pIC50. CC(C)CCCN(c1cc2oc(-c3ccc(F)cc3)c(-c3ncc[nH]3)c2cc1C1CC1)S(C)(=O)=O
Ans: 8.19

Q: Look at this compound and give its reported pIC50. CCCCCN(c1cc2oc(-c3ccc(F)cc3)c(-c3ncc[nH]3)c2cc1C1CC1)S(C)(=O)=O
Ans: 8.07

Q: Look at this compound and give its reported pIC50. CS(=O)(=O)N(CCC1CCOCC1)c1cc2oc(-c3ccc(F)cc3)c(-c3ncc[nH]3)c2cc1C1CC1
Ans: 8.11

* * *

- System: HCV 1b-BB7 subgenomic replicon
- ASSAY DETAILS: microbe, parasite or virus in culture
- Type: cell-based, HCV genotype 1b
- PARTICULARS: Hepatitis C virus, stable replicon, strain 1b BB7, 5% FBS; read-out: 1b BB7 5% FBS EC50
ENDPOINT: pEC50
Reminder that pEC50 is minus the log10 of a molar concentration.

The examples below pair each entry with its known result.
COMPOUND	pEC50
CS(=O)(=O)N(CCC1CCCCC1)c1cc2oc(-c3ccc(F)cc3)c(-c3ncc[nH]3)c2cc1C1CC1 [Example 72]	7.21
CS(=O)(=O)N(CCCc1noc(=S)[nH]1)c1cc2oc(-c3ccc(F)cc3)c(C3=NOCCN3)c2cc1C1CC1 [Example 183]	7.06
CC(O)CCCN(c1cc2oc(-c3ccc(F)cc3)c(-c3ncc[nH]3)c2cc1C1CC1)S(C)(=O)=O (stereo not shown) [Example 100]	8.47
CS(=O)(=O)N(CCN1CCCC1)c1cc2oc(-c3ccc(F)cc3)c(C3=NOCCN3)c2cc1C1CC1 [Example 128]	7.36
CS(=O)(=O)CCCCN(c1cc2oc(-c3ccc(F)cc3)c(C3=NOCCN3)c2cc1C1CC1)S(C)(=O)=O [Example 122]	7.96

Q: Look at this compound and give its reported pEC50. CS(=O)(=O)N(CCC1CCS(=O)(=O)C1)c1cc2oc(-c3ccc(F)cc3)c(C3=NOCCN3)c2cc1C1CC1 (stereo not shown) [Example 123]
Ans: 7.74

Q: Look at this compound and give its reported pEC50. Cc1ncsc1CCN(c1cc2oc(-c3ccc(F)cc3)c(-c3ncc[nH]3)c2cc1C1CC1)S(C)(=O)=O [Example 78]
Ans: 7.80

* * *

- Tested on: HCV 1b-BB7 subgenomic replicon
- ASSAY DETAILS: microbe, parasite or virus in culture
- Format: cell-based, HCV genotype 1b
- PARTICULARS: Hepatitis C virus, stable replicon, strain 1b BB7, 5% FBS, no human plasma; read-out: 1b BB7 5% FBS EC50
Response field label: string, one of label 1 (EC50 strictly below 10 nM) or label 0.

COMPOUND	SUBJECT OF TEST	LABEL VALUE
CC1NC(c2c(-c3ccc(F)cc3)oc3cc(N(CCS(C)(=O)=O)S(C)(=O)=O)c(C4CC4)cc23)=NO1 (stereo not shown)	HCV 1b-BB7 subgenomic replicon	label 0

Q: Strictly below 10 nM: is that where EC50 of CS(=O)(=O)N(CCCCF)c1cc2oc(-c3ccc(F)cc3)c(-c3ncc[nH]3)c2cc1C1CC1 sits?
Ans: label 1

Q: Strictly below 10 nM: is that where EC50 of CC1NC(c2c(-c3ccc(F)cc3)oc3cc(N(CC[S+](C)[O-])S(C)(=O)=O)c(C4CC4)cc23)=NO1 (stereo not shown) sits?
Ans: label 0

Q: Strictly below 10 nM: is that where EC50 of CNS(=O)(=O)CCCN(c1cc2oc(-c3ccc(F)cc3)c(-c3ncc[nH]3)c2cc1C1CC1)S(C)(=O)=O sits?
Ans: label 1

Q: Strictly below 10 nM: is that where EC50 of CC(C)(C#N)CCCCN(c1cc2oc(-c3ccc(F)cc3)c(C3=NOCCN3)c2cc1C1CC1)S(C)(=O)=O sits?
Ans: label 0

Q: Strictly below 10 nM: is that where EC50 of CS(=O)(=O)N(CCN1CCOCC1)c1cc2oc(-c3ccc(F)cc3)c(-c3ncc[nH]3)c2cc1C1CC1 sits?
Ans: label 0

* * *

- System: HCV NS5B polymerase 1a-H77-C316Y
- ASSAY DETAILS: biochemical
- Set-up: species or system HCV genotype 1a
- PARTICULARS: ratio of enzyme IC50s, 1a H77-C316Y / 1a H77
Reported C316Y/1a Fold Resistance values are given for each entry in this list.
Quick note: give the figure in fold, leave out the unit.

COMPOUND	SUBJECT OF TEST	C316Y/1a Fold Resistance [fold]
CS(=O)(=O)N(Cc1cnc(Br)s1)c1cc2oc(-c3ccc(F)cc3)c(-c3ncc[nH]3)c2cc1C1CC1 [Example 67]	HCV NS5B polymerase 1a-H77-C316Y	68
CS(=O)(=O)N(CCCN1CCCC1)c1cc2oc(-c3ccc(F)cc3)c(C3=NOCCN3)c2cc1C1CC1 [Example 132]	HCV NS5B polymerase 1a-H77-C316Y	42
CS(=O)(=O)N(CCCCC(F)=C(F)F)c1cc2oc(-c3ccc(F)cc3)c(C3=NOCCN3)c2cc1C1CC1 [Example 120]	HCV NS5B polymerase 1a-H77-C316Y	6

Please examine the following record next.
Q: Look at this compound and give its reported C316Y/1a Fold Resistance. CCCCCCN(c1cc2oc(-c3ccc(F)cc3)c(-c3ncc[nH]3)c2cc1C1CC1)S(C)(=O)=O [Example 71]
Ans: 15
